# TESTED_ON: human M1 receptor (hCHRM1) (Homo sapiens)
# Sequence (P11229 whole entry): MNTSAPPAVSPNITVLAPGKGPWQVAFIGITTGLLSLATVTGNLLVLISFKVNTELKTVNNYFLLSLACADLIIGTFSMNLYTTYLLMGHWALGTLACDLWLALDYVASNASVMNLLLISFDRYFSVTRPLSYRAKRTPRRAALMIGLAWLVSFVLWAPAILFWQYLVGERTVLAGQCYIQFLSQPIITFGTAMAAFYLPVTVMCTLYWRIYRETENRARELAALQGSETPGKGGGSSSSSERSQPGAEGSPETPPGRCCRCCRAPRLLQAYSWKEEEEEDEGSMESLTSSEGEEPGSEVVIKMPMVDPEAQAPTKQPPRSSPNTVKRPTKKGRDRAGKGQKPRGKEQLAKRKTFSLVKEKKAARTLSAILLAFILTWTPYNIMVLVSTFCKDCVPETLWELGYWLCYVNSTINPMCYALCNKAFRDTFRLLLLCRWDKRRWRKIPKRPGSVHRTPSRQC
# EXPERIMENTAL_PROTOCOL: Measurement of M1 receptor positive allosteric modulator (M1PAM) activity, calcium fluorescence (FLIPRtetra) with acetylcholine at EC20
# CONDITION_DESCRIPTION: inflection point of concentration-dependent curve; CHO-K1 cells expressing hCHRM1; acetylcholine at EC20 (final 0.6-0.8 nM); read-out: IP value
pEC50: −log10 of the molar value.
MEASURED_PARAMETER: pEC50

Consider the reported pEC50 for these compounds:
COMPOUND	MEASURED_PARAMETER	MEASURED_RESULT
Cc1cc2c(cc1Cc1ccc(-c3cn(C)nc3C)cc1)C(=O)N([C@H]1CCC[C@@H]1O)C2 (racemic) [Example 55]	pEC50	7.01
Cc1cc2c(cc1Cc1ccc(-n3cccn3)cc1)C(=O)N(c1c(F)cccc1C#N)C2 [Example 7]	pEC50	6.74
CNC(=O)c1ccc(Cc2cc3c(c(C)c2C)CN([C@H]2CCC[C@@H]2O)C3=O)cc1F [Example 123]	pEC50	8.68

a. O=C1c2cc(Cc3ccc(-n4cccn4)cc3)c(Cl)cc2CN1[C@H]1CCCC[C@@H]1O (racemic) [Example 2]
b. Cc1cc(-c2ccc(Cc3cc4c(cc3C)CN([C@H]3CCC[C@@H]3O)C4=O)cc2)cnn1 (racemic) [Example 91]
c. Cc1c(Cc2ccc(-c3ccn(C)n3)cc2)cc2c(c1C)CN(C[C@@H]1CCCO1)C2=O [Example 109]
d. Cc1c(Cc2ccc(-c3cnn(C)c3)cc2)cc2c(c1C)CN([C@H]1CCCC[C@@H]1O)C2=O (racemic) [Example 89]
Q: Rank the 4 compounds: largest pEC50 first, smallest last. Show the ranking through the labels, in the order asked for.
Result: d, c, b, a
(d: 8.24, c: 7.64, b: 7.42, a: 7.07)

###

# TESTED_ON: human M1 receptor (hCHRM1) (Homo sapiens)
# Construct: expressed in transfected cells
# EXPERIMENTAL_PROTOCOL: Measurement of M1 receptor positive allosteric modulator (M1PAM) activity, calcium fluorescence (FLIPRtetra) with acetylcholine at EC20
# Assay type: cell-based
# CONDITION_DESCRIPTION: 10 μM test compound; 100% = acetylcholine 1 μM, 0% = DMSO; acetylcholine at EC20
MEASURED_PARAMETER: activity (%) at 10 μM

COMPOUND	TESTED_ON	activity (%) at 10 μM
Cc1c(Cc2ccc(-c3ccn(C)n3)cc2F)cc2c(c1C)CN([C@H]1CCC[C@@H]1O)C2=O (racemic)	human M1 receptor (hCHRM1) (Homo sapiens)	100
COc1ccc(Cc2cc3c(c(Cl)c2C)CN([C@H]2COCC[C@@H]2O)C3=O)cc1	human M1 receptor (hCHRM1) (Homo sapiens)	88
CCc1ccc(Cc2cc3c(c(C)c2C)CN([C@H]2CCCC[C@@H]2O)C3=O)cn1	human M1 receptor (hCHRM1) (Homo sapiens)	99
Cc1cc(-c2ccc(Cc3cc4c(cc3C)CN([C@H]3CCC[C@@H]3O)C4=O)cn2)ccn1 (racemic)	human M1 receptor (hCHRM1) (Homo sapiens)	97
COc1ccc(Cc2cc3c(c(C)c2C)CN([C@H]2COCC[C@@H]2O)C3=O)cc1F	human M1 receptor (hCHRM1) (Homo sapiens)	111
Cc1c(Cc2ccc(-n3cccn3)nc2)cc2c(c1C)CN(C[C@@H]1CCCO1)C2=O	human M1 receptor (hCHRM1) (Homo sapiens)	100
CCc1cc2c(cc1Cc1ccc(-n3cccn3)cc1F)C(=O)N([C@H]1COCC[C@@H]1O)C2	human M1 receptor (hCHRM1) (Homo sapiens)	97
Cc1c(Cc2ccc(-c3cnn(C)c3)cc2)cc2c(c1C)CN(CC1CCCO1)C2=O (centres unmarked)	human M1 receptor (hCHRM1) (Homo sapiens)	104
